Test system: 777334-354-R2-J4-PDC tumor spheroids with HUVEC/MSC, viability
Assay: Anticancer human tumor 777334-354-R2-J4-PDC patient-derived pancreatic adenocarcinoma cell line growth inhibition [GQUAD]
Settings: second compound 0.316 µM; first compound 1 µM; hits give low values
hey, just use t if measured viability, T/C is less than 70%, otherwise f

Use these answered entries as a reference point.
compound: CC1COCCN1c1cc(-c2ccnn2C)c2ccnc(-c3ccn[nH]3)c2n1 (stereo not given) + Cc1cnc(CNC(=O)c2c(=O)c3ccc(N4CCCN(C)CC4)nc3n3c2sc2ccccc23)cn1
category_label: t
--
compound: COc1ncnc(C2CC2)c1-c1ncc2cnn(Cc3ccc(-c4nc(C(F)(F)F)cn4C(C)C)cc3)c2n1 + CN(C)c1ccc(Nc2c3ccc(NC(=O)CCN4CCCC4)cc3nc3cc(NC(=O)CCN4CCCC4)ccc23)cc1
category_label: f
--
compound: CCCS(=O)(=O)Nc1ccc(F)c(C(=O)c2c[nH]c3ncc(-c4ccc(Cl)cc4)cc23)c1F + Cc1cnc(CNC(=O)c2c(=O)c3ccc(N4CCCN(C)CC4)nc3n3c2sc2ccccc23)cn1
category_label: f
--
compound: COc1cc(C2c3cc4c(cc3C(OC3OC5COC(C)OC5C(O)C3O)C3COC(=O)C23)OCO4)cc(OC)c1O (stereo not given) + Cc1[nH]c2ccc(F)cc2c1-c1nc2c3cccnc3c3ncccc3c2[nH]1
category_label: f
--
compound: C#Cc1c(F)ccc2cc(O)cc(-c3ncc4c(N5CC6CCC(C5)N6)nc(OCC56CCCN5CC(F)C6)nc4c3F)c12 (stereo not given) + Cc1cnc(CNC(=O)c2c(=O)c3ccc(N4CCCN(C)CC4)nc3n3c2sc2ccccc23)cn1
category_label: t
--
compound: COc1ccc([C@@H](O)c2cc(-c3ncnc4cc(N5CCOCC5)ccc34)c(F)cc2Cl)nn1 + Cc1cnc(CNC(=O)c2c(=O)c3ccc(N4CCCN(C)CC4)nc3n3c2sc2ccccc23)cn1
category_label: t
--
compound: CCCS(=O)(=O)Nc1ccc(F)c(C(=O)c2c[nH]c3ncc(-c4ccc(Cl)cc4)cc23)c1F + Cc1[nH]c2ccc(F)cc2c1-c1nc2c3cccnc3c3ncccc3c2[nH]1
category_label: f
--
compound: Cc1cccc(N(C)C(=O)C2C(O)CCN2c2nc(C)cc(C(F)(F)F)c2C#N)c1 (stereo not given) + Cc1[nH]c2ccc(F)cc2c1-c1nc2c3cccnc3c3ncccc3c2[nH]1
category_label: f
--
compound: CC(C)(O)C1CCC(Nc2ccc3ncc(-c4cccc(C(F)(F)F)c4)n3n2)CC1 (stereo not given) + CN(C)c1ccc(Nc2c3ccc(NC(=O)CCN4CCCC4)cc3nc3cc(NC(=O)CCN4CCCC4)ccc23)cc1
category_label: t
--
compound: CC1COCCN1c1cc(-c2ccnn2C)c2ccnc(-c3ccn[nH]3)c2n1 (stereo not given) + CN(C)c1ccc(Nc2c3ccc(NC(=O)CCN4CCCC4)cc3nc3cc(NC(=O)CCN4CCCC4)ccc23)cc1
category_label: t

Lab log: compare recorded viability, T/C with 70%; is it strictly lower for C#Cc1c(F)ccc2cc(O)cc(-c3ncc4c(N5CC6CCC(C5)N6)nc(OCC56CCCN5CC(F)C6)nc4c3F)c12 (stereo not given) + Cc1[nH]c2ccc(F)cc2c1-c1nc2c3cccnc3c3ncccc3c2[nH]1 ?
t

Lab log: compare recorded viability, T/C with 70%; is it strictly lower for CC(C)n1c(=O)n(C)c2cnc3cc(F)c(-c4ccc(OCCCN5CCCCC5)nc4)cc3c21 + CN(C)c1ccc(Nc2c3ccc(NC(=O)CCN4CCCC4)cc3nc3cc(NC(=O)CCN4CCCC4)ccc23)cc1 ?
f

Lab log: compare recorded viability, T/C with 70%; is it strictly lower for COc1cccc2c1C(=O)c1c(O)c3c(c(O)c1C2=O)CC(O)(C(=O)CO)CC3OC1CC(N)C(O)C(C)O1 (stereo not given) + Cc1[nH]c2ccc(F)cc2c1-c1nc2c3cccnc3c3ncccc3c2[nH]1 ?
t

Lab log: compare recorded viability, T/C with 70%; is it strictly lower for COc1cccc2c1C(=O)c1c(O)c3c(c(O)c1C2=O)CC(O)(C(=O)CO)CC3OC1CC(N)C(O)C(C)O1 (stereo not given) + Cc1cnc(CNC(=O)c2c(=O)c3ccc(N4CCCN(C)CC4)nc3n3c2sc2ccccc23)cn1 ?
t

###

Test system: 777334-354-R2-J4-PDC tumor spheroids with HUVEC/MSC, viability
Test: Anticancer human tumor 777334-354-R2-J4-PDC cell line growth inhibition [GQUAD];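 further: spheroids exposed to compounds for 7 days before readout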
Conditions: second compound 0.316 µM; first compound 0.0316 µM; hits give low values
Documented viability, T/C across a set of compounds
State just the number; it will be interpreted in %.

Previously resolved entries follow.
compound: Cn1ncnc1[C@H]1c2n[nH]c(=O)c3cc(F)cc(c23)N[C@@H]1c1ccc(F)cc1 + Cc1cnc(CNC(=O)c2c(=O)c3ccc(N4CCCN(C)CC4)nc3n3c2sc2ccccc23)cn1
reported_result: 79.6
--
compound: O=C(NO)c1cnc(N2CCN(S(=O)(=O)c3ccc4ccccc4c3)CC2)nc1 + CN(C)c1ccc(Nc2c3ccc(NC(=O)CCN4CCCC4)cc3nc3cc(NC(=O)CCN4CCCC4)ccc23)cc1
reported_result: 86.8
--
compound: Cc1cccc(N(C)C(=O)C2C(O)CCN2c2nc(C)cc(C(F)(F)F)c2C#N)c1 (stereo not given) + Cc1[nH]c2ccc(F)cc2c1-c1nc2c3cccnc3c3ncccc3c2[nH]1
reported_result: 95.3
--
compound: C#Cc1c(F)ccc2cc(O)cc(-c3ncc4c(N5CC6CCC(C5)N6)nc(OCC56CCCN5CC(F)C6)nc4c3F)c12 (stereo not given) + Cc1cnc(CNC(=O)c2c(=O)c3ccc(N4CCCN(C)CC4)nc3n3c2sc2ccccc23)cn1
reported_result: 39.6

--- query ---
What viability, T/C value was documented for this compound, C=CC(=O)N1CCN(c2nc(=O)n(-c3c(C)ccnc3C(C)C)c3nc(-c4c(O)cccc4F)c(F)cc23)C(C)C1 (stereo not given) + Cc1[nH]c2ccc(F)cc2c1-c1nc2c3cccnc3c3ncccc3c2[nH]1 ?
82.6

###

Test system: 777334-354-R2-J4-PDC tumor spheroids with HUVEC/MSC, viability
Assay: Anticancer human tumor 777334-354-R2-J4-PDC cell line growth inhibition [GQUAD];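 further: spheroids exposed to compounds for 7 days before readout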
Conditions: second compound 3.16 µM; first compound 1 µM; hits give low values
Excerpt: DNA G-quadruplex Stabilizer Agents in Combinations in Complex Spheroids A high-throughput screen of multi-cell type tumor spheroids was designed to identify active combinations of DNA G-quadruplex stabilizer agents and targeted small molecules. […] Compounds. […] If the clinical Cmax for an agent had not been determined, the highest concentration tested was 10 microM. […]
readout_type: viability, T/C (%)
State just the number; it will be interpreted in %.

Previously resolved entries follow.
compound: COc1cc(C2c3cc4c(cc3C(OC3OC5COC(C)OC5C(O)C3O)C3COC(=O)C23)OCO4)cc(OC)c1O (stereo not drawn) + Cc1cnc(CNC(=O)c2c(=O)c3ccc(N4CCCN(C)CC4)nc3n3c2sc2ccccc23)cn1
viability, T/C / %: 61.1

compound: CC1COCCN1c1cc(-c2ccnn2C)c2ccnc(-c3ccn[nH]3)c2n1 (stereo not drawn) + Cc1cnc(CNC(=O)c2c(=O)c3ccc(N4CCCN(C)CC4)nc3n3c2sc2ccccc23)cn1
viability, T/C / %: 41.3

What viability, T/C value was documented for this compound, C=CC(=O)N1CCN(c2nc(=O)n(-c3c(C)ccnc3C(C)C)c3nc(-c4c(O)cccc4F)c(F)cc23)C(C)C1 (stereo not drawn) + Cc1[nH]c2ccc(F)cc2c1-c1nc2c3cccnc3c3ncccc3c2[nH]1 ?
41

###

Tested on: 777334-354-R2-J4-PDC tumor spheroids with HUVEC/MSC, viability
Experiment: Anticancer human tumor 777334-354-R2-J4-PDC cell line growth inhibition [GQUAD]; active = viability on the fitted dose curve at most 10% of control; inactive = the rest;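 further: spheroids exposed to compounds for 7 days before readout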
Conditions: second compound 1 µM; first compound 10 µM
Give one outcome, nothing more. List: active, inactive

Use these answered entries as a reference point.
molecule: CC1COCCN1c1cc(C2(O)CC3CCC(C2)O3)c2cnn(-c3ccn[nH]3)c2n1 (stereo unspecified) + Cc1[nH]c2ccc(F)cc2c1-c1nc2c3cccnc3c3ncccc3c2[nH]1
category_label: inactive

molecule: CC1COCCN1c1cc(-c2ccnn2C)c2ccnc(-c3ccn[nH]3)c2n1 (stereo unspecified) + Cc1cnc(CNC(=O)c2c(=O)c3ccc(N4CCCN(C)CC4)nc3n3c2sc2ccccc23)cn1
category_label: inactive

molecule: Nc1ccn(C2OC(CO)C(O)C2(F)F)c(=O)n1 (stereo unspecified) + CN(C)c1ccc(Nc2c3ccc(NC(=O)CCN4CCCC4)cc3nc3cc(NC(=O)CCN4CCCC4)ccc23)cc1
category_label: inactive

molecule: CC1COCCN1c1cc(C2(S(C)(=N)=O)CC2)nc(-c2ccnc3[nH]ccc23)n1 (stereo unspecified) + Cc1[nH]c2ccc(F)cc2c1-c1nc2c3cccnc3c3ncccc3c2[nH]1
category_label: inactive

molecule: Cc1cccc(N(C)C(=O)C2C(O)CCN2c2nc(C)cc(C(F)(F)F)c2C#N)c1 (stereo unspecified) + CN(C)c1ccc(Nc2c3ccc(NC(=O)CCN4CCCC4)cc3nc3cc(NC(=O)CCN4CCCC4)ccc23)cc1
category_label: inactive

Give the logged outcome of this assay for the following molecule: CC(C)(O)C1CCC(Nc2ccc3ncc(-c4cccc(C(F)(F)F)c4)n3n2)CC1 (stereo unspecified) + CN(C)c1ccc(Nc2c3ccc(NC(=O)CCN4CCCC4)cc3nc3cc(NC(=O)CCN4CCCC4)ccc23)cc1
inactive

Give the logged outcome of this assay for the following molecule: COc1ccc([C@@H](O)c2cc(-c3ncnc4cc(N5CCOCC5)ccc34)c(F)cc2Cl)nn1 + Cc1cnc(CNC(=O)c2c(=O)c3ccc(N4CCCN(C)CC4)nc3n3c2sc2ccccc23)cn1
inactive

Give the logged outcome of this assay for the following molecule: COc1cccc2c1C(=O)c1c(O)c3c(c(O)c1C2=O)CC(O)(C(=O)CO)CC3OC1CC(N)C(O)C(C)O1 (stereo unspecified) + Cc1cnc(CNC(=O)c2c(=O)c3ccc(N4CCCN(C)CC4)nc3n3c2sc2ccccc23)cn1
active

Give the logged outcome of this assay for the following molecule: CC1COCCN1c1cc(C2(S(C)(=N)=O)CC2)nc(-c2ccnc3[nH]ccc23)n1 (stereo unspecified) + Cc1cnc(CNC(=O)c2c(=O)c3ccc(N4CCCN(C)CC4)nc3n3c2sc2ccccc23)cn1
inactive

Give the logged outcome of this assay for the following molecule: COc1cc(C2c3cc4c(cc3C(OC3OC5COC(C)OC5C(O)C3O)C3COC(=O)C23)OCO4)cc(OC)c1O (stereo unspecified) + Cc1cnc(CNC(=O)c2c(=O)c3ccc(N4CCCN(C)CC4)nc3n3c2sc2ccccc23)cn1
inactive

Give the logged outcome of this assay for the following molecule: C=CCn1c(=O)c2cnc(Nc3ccc(N4CCN(C)CC4)cc3)nc2n1-c1cccc(C(C)(C)O)n1 + Cc1cnc(CNC(=O)c2c(=O)c3ccc(N4CCCN(C)CC4)nc3n3c2sc2ccccc23)cn1
inactive
